Tested on: UISO
measurementDescription: qHTS assay to identify novel small-molecules to repurpose for Merkel cell carcinoma treatment (AID 1296009); note: nearly all actives have a fitted effect of over 60% in size
experimentalConditions: MCC and control cell lines, CellTiter-Glo viability, 72 h; series mostly up to 46 µM
Results filed as inconclusive are left out. Activity calls are given as the source filed them. Calls come from the whole dose curve; as a rule, active = well fitted inhibition curve with a large enough effect; inconclusive = small, poorly fitted or top-dose-only effect; inactive = flat fitted curve, though single readings scatter.
Classes used: active, inactive

> print(dat)
                                    compound  assignedlabel
 1      CCCOc1ccccc1-c1nc2n[nH]nc2c(=O)[nH]1       inactive
 2                CN=C(NC#N)NCCSCc1nc[nH]c1C       inactive
 3  C[N+](C)(C)CCOC(=O)CCC(=O)OCC[N+](C)(C)C       inactive
 4                  CN1C(=O)CC[C@H]1c1cccnc1       inactive
 5          C[C@H](CS)C(=O)N1CCC[C@H]1C(=O)O       inactive
 6  CC(N=C(NC#N)Nc1ccncc1)C(C)(C)C (centres undefined)       inactive
 7  Cc1scc2c1N(C(=O)CN1CCN(C)CC1)c1ccccc1NC2=O       inactive
 8  COC(=O)C1=C(C)NC(C)=C(C(=O)OCCN(C)Cc2ccccc2)C1c1cccc([N+](=O)[O-])c1 (centres undefined)         active
 9                      C[N+](C)(C)CCOC(N)=O       inactive
10                C#CCN(C)CCCOc1ccc(Cl)cc1Cl       inactive
11       CN(C)CC[C@@H](c1ccc(Br)cc1)c1ccccn1       inactive
12  CC(C)(C)NCC(O)c1cc(O)cc(O)c1 (centres undefined)       inactive
13  C[C@@H](O)[C@H]1C(=O)N2C(C(=O)O)=C(SCCN=CN)C[C@H]12       inactive
14  C[C@]12CCC(=O)C=C1CC[C@@H]1[C@@H]2C(=O)C[C@@]2(C)[C@H]1CC[C@]2(O)C(=O)CO       inactive

----------
System: CP291
measurementDescription: qHTS profiling for inhibitors of Plasmodium falciparum proliferation (AID 504749); note: nearly all actives have a fitted effect of over 60% in size
experimentalConditions: P. falciparum in erythrocytes, SYBR Green DNA, 72 h; series mostly up to 28.7 µM
Procedure: NIH National Institute of Allergy and Infectious Diseases [NIAID] NIH Chemical Genomics Center [NCGC] […] Because mature erythrocytes lack DNA, only Plasmodium-derived DNA is detected. NCGC Assay Protocol Summary: The SYBR Green viability assay was adapted from a method described previously (Plouffe et al., 2008). […] The following morning, fluorescence intensity at 485(14) nm excitation and 535(25) nm emission wavelengths was measured on an EnVision (Perkin Elmer) plate reader. […]
Records with an inconclusive call do not appear. The source made the active and inactive calls. Calls follow the shape of the dose curve; as a rule, active = well fitted inhibition curve with a large enough effect; inconclusive = small, poorly fitted or top-dose-only effect; inactive = flat fitted curve, though single readings scatter.
Labels: TRUE for active, FALSE for inactive

> print(dat)
                               smilesrecord  assignedlabel
1  O=c1[nH]c(=O)n([C@H]2C[C@H](O)[C@@H](CO)O2)cc1Br          FALSE
2                CCN(CC)CC(=O)Nc1c(C)cccc1C          FALSE
3  CN1C[C@H](C(=O)N[C@]2(C)O[C@@]3(O)[C@@H]4CCCN4C(=O)[C@H](Cc4ccccc4)N3C2=O)C[C@@H]2c3cccc4[nH]cc(c34)C[C@H]21           TRUE
